Molecular target: metabotropic glutamate receptor 5 (Rattus norvegicus)
Sequence (P31424 21-1203): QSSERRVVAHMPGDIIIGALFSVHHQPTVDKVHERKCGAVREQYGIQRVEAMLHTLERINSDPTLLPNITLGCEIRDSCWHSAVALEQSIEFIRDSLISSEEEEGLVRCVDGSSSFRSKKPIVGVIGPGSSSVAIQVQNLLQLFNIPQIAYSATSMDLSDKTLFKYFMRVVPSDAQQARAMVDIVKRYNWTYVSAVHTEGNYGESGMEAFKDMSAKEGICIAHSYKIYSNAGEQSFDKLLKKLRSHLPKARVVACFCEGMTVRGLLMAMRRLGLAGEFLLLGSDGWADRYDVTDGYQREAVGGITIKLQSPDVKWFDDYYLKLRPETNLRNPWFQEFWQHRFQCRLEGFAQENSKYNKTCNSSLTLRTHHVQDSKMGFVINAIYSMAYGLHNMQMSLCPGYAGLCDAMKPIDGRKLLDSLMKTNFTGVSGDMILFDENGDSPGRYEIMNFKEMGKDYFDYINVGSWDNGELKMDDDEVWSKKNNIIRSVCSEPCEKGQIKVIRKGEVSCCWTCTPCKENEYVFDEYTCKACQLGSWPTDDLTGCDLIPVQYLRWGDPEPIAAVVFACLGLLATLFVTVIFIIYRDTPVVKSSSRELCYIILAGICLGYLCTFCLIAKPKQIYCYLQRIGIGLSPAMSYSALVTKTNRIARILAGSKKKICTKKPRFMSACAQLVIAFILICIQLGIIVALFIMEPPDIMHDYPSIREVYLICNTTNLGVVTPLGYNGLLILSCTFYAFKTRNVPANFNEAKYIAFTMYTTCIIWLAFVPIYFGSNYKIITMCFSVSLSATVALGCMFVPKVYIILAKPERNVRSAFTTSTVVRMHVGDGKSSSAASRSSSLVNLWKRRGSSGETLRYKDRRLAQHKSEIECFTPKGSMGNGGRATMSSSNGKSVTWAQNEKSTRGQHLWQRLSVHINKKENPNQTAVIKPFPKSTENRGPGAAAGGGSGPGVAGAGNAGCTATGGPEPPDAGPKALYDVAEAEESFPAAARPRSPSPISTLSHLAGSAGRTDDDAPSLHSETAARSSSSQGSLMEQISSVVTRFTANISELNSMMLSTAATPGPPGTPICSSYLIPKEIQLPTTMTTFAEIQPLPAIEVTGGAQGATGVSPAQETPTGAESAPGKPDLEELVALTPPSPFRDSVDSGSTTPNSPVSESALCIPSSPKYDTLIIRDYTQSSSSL
Experiment: FLIPR Calcium 3 fluorescence-based functional assay of intracellular calcium, mGluR5 antagonist activity
Conditions: inhibition of glutamate (EC90, ~50 uM) stimulated calcium levels, mGluR5 HEK-293 cells; read-out: mGluR5 FLIPR MP Antagonist DR IC50
One threshold, 30 nM, splits the recorded IC50 values: lower ones are yes (1), equal or higher ones are no (0).

Solved cases below.
{"compound": "COc1ccc(C(=O)N2CCc3ccccc3C2c2ccco2)cc1C#Cc1ccccn1 (stereo not drawn)", "cat": "no (0)"}
{"compound": "O=C(c1ccc(Cl)c(C#Cc2ccccn2)c1)N1CCc2c(F)cccc2C1", "cat": "yes (1)"}
{"compound": "COc1ccc(C(=O)N2Cc3cnc(C)c(Cl)c3C2)cc1C#Cc1ccccn1", "cat": "yes (1)"}
{"compound": "O=C(c1ccc(C(F)(F)F)c(C#Cc2ccccn2)c1)N1CCc2[nH]ncc2C1", "cat": "yes (1)"}

[ask] Consider O=C(c1ccc(C(F)(F)F)c(C#Cc2ccccn2)c1)N1CCc2ncc(Br)cc2C1 . Does its IC50 lie strictly below 30 nM?
[reply] yes (1)

[ask] Consider COc1ccc(C(=O)N2Cc3ccncc3C2)cc1C#Cc1ccccn1 . Does its IC50 lie strictly below 30 nM?
[reply] yes (1)

[ask] Consider O=C(c1ccc(C(F)(F)F)c(C#Cc2ccccn2)c1)N1CCc2c(Cl)cccc2C1 . Does its IC50 lie strictly below 30 nM?
[reply] no (0)

[ask] Consider COc1ccc(C(=O)N2Cc3cccc(F)c3C2)cc1C#Cc1ccccn1 . Does its IC50 lie strictly below 30 nM?
[reply] yes (1)

[ask] Consider COc1ccc(C(=O)N2CCc3c(Cl)cc(Cl)cc3C2)cc1C#Cc1ccccn1 . Does its IC50 lie strictly below 30 nM?
[reply] no (0)

[ask] Consider Cc1ccc(C(=O)N2CCc3[nH]ncc3C2)cc1C#Cc1ccccn1 . Does its IC50 lie strictly below 30 nM?
[reply] yes (1)

[ask] Consider Cc1ccc(C(=O)N2CCc3ncccc3C2)cc1C#Cc1ccccn1 . Does its IC50 lie strictly below 30 nM?
[reply] yes (1)

----------
Target: rat mGluR5 receptor (Rattus norvegicus, UniProt P31424)
measured_quantity: Ki (nM)
The reply should contain only the number, in nM.

Please review the entries below; each comes with its answer.
{"compound": "O=C(c1ccc(C(F)(F)F)c(C#Cc2ccccn2)c1)N1CCc2ncccc2C1", "Ki (nM)": 4}
{"compound": "COc1ccc(C(=O)N2CCc3c(Cl)cccc3C2)cc1C#Cc1ccccn1", "Ki (nM)": 1}
{"compound": "COc1ccc(C(=O)N2CCc3ccccc3[C@H]2[C@@H]2CCCO2)cc1C#Cc1ccccn1", "Ki (nM)": 178}

[ask] Fill in reported Ki for this entry: COc1ccc(C(=O)N2CCc3ccccc3C2c2ccco2)cc1C#Cc1ccccn1 (stereo not drawn)
[reply] 21

[ask] Fill in reported Ki for this entry: Cc1ccc(C(=O)N2CCc3cccnc3C2)cc1C#Cc1ccccn1
[reply] 11

[ask] Fill in reported Ki for this entry: O=C(c1ccc(C(F)(F)F)c(C#Cc2ccccn2)c1)N1Cc2ccncc2C1
[reply] 120

[ask] Fill in reported Ki for this entry: COc1ccc(C(=O)N2Cc3cnc(C)cc3C2)cc1C#Cc1ccccn1
[reply] 26

[ask] Fill in reported Ki for this entry: O=C(c1ccc(Cl)c(C#Cc2ccccn2)c1)N1CCc2cccnc2C1
[reply] 5

[ask] Fill in reported Ki for this entry: COc1ccc(C(=O)N2C3CCC2c2ccccc23)cc1C#Cc1ccccn1
[reply] 1120

Data origin, for the record: patent US20100273772A1
